Origin of the recorded values: ChEMBL document CHEMBL4342410

Target: Serine/threonine-protein kinase B-raf (Homo sapiens, UniProt P15056)
Sequence (P15056 whole entry): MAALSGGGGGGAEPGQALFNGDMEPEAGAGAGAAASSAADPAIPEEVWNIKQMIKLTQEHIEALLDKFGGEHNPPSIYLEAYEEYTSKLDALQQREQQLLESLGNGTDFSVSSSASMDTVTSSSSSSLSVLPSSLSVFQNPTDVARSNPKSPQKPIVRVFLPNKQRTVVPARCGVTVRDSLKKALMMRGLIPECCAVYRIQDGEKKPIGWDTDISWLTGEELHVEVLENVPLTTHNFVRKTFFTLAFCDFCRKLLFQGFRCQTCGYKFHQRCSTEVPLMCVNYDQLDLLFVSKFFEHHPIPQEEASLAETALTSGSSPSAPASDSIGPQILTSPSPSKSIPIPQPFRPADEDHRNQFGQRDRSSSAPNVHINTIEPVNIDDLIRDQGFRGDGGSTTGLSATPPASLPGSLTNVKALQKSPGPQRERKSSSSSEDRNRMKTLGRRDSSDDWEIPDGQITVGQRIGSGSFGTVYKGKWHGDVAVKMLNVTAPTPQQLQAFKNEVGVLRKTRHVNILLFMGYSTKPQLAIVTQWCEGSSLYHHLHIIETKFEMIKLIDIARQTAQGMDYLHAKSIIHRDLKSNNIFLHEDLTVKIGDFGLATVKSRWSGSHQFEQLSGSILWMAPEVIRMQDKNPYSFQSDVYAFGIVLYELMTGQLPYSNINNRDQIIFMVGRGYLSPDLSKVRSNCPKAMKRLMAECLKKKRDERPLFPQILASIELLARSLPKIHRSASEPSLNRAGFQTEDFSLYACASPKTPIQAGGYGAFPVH
Test readout: IC50 (pM)
Numbers only, in pM.

Return reported IC50; argument: "Cc1ccc(NC(=O)c2ccnc(C(F)(F)F)c2)cc1-c1cc(OCCO)nc(N2CCOCC2)c1"
400
